test: Blood and brain drug concentrations in satellite animals; format: in vivo; conditions: CD, rat, whole blood, subcutaneous, ENa8 1 mg/kg + ENK6 30 mg/kg; rat satellite animals n=2; read-out: Blood ENa8
MEASUREMENT TYPE: concentration at 30 min
Note: state the figure and append the unit.

Reported concentration at 30 min, compound Cl.NC(=O)[C@@H]1CC[C@H](c2ccc(OCc3ccccc3F)cc2)N1 [ENa8, hydrochloride] : ____
246 ng/mL
